# assay.system: furin, P09958;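 note: purified furin at 1:10 enzyme:substrate in 50 mM HEPES pH 7.5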
# Sequence (P09958 whole entry): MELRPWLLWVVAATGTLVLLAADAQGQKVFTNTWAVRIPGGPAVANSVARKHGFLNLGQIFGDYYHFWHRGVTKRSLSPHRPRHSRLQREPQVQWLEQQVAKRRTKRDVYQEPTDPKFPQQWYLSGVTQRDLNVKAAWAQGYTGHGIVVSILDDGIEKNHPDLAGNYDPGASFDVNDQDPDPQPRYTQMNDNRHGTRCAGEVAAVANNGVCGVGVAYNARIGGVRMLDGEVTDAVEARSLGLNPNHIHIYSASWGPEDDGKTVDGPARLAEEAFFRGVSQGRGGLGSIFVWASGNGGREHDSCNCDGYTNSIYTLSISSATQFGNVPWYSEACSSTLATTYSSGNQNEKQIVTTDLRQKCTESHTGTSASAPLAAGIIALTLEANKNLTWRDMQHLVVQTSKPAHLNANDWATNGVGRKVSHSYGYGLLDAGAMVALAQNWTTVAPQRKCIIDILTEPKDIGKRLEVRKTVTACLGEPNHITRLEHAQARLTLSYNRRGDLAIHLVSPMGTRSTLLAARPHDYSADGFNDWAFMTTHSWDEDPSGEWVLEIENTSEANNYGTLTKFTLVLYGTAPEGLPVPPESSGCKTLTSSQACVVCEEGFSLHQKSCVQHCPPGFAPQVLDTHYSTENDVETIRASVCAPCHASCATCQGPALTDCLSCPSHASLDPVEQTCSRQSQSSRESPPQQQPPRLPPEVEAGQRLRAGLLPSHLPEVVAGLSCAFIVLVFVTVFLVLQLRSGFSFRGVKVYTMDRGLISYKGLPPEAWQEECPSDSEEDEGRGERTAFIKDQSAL
# assay.explanation: furin cleavage Z-score vs untreated control; higher = more cleavage, active = 3.5 or more, inactive = 1 or less, 8 variable residues between constant flanks
# experimental.parameters: 15 min
The other results are listed elsewhere or left out. No count for the full screen is at hand.
Please answer using one outcome listed in label 1 (active), label 0 (inactive)

| ordered.residues | group |
| --- | --- |
| CAPVENLETTAGNASASA [HC759] | label 0 |
| CAEWVVCCSMAGNASASA [HC2128] | label 0 |
| CASKRDHRRSAGNASASA [FS-1411] | label 0 |

Asked: Could you kindly confirm the outcome this assay logged for CATTPCSMSWAGNASASA [HC1886] ?
Given back: label 0

Asked: How was CAALCRHRRLAGNASASA [FS-154] classified in this test?
Given back: label 1

Asked: Hi team, can someone confirm the assay call for CARVKRYRQSAGNASASA [FS-2243] ?
Given back: label 1

Asked: Which outcome was entered for the sequence CAWRNRKKKTAGNASASA [FS-575] in this test?
Given back: label 0

Asked: Any idea what this test logged for CARVKRRADPAGNASASA [FS-2197] ?
Given back: label 1

Asked: Record request — test call for CATPCTCGSSAGNASASA [HC721]
Given back: label 0

Asked: Write down the call the test reported for this sequence. Item: CARHRRQRRSAGNASASA [FS-707]
Given back: label 1

Asked: # outcome recorded in this test, key = CAGINAVAYYAGNASASA [HC866]
Given back: label 0

Asked: How was CAYTNVDQDLAGNASASA [HC711] classified in this test?
Given back: label 0

Asked: Please let me know the test result on file for CARIRRMADAAGNASASA [FS-2339] .
Given back: label 1

Asked: Hi team, can someone confirm the assay call for CAWGNRFKKLAGNASASA [FS-315] ?
Given back: label 0
